Assay: in vitro
Set-up: CCK-8 growth inhibition of MRC5 normal fibroblasts (counter-screen)
Conditions: human, mrc5 cells
Structures can show the parent of a compound that is named as a salt.
ASSAY_ENDPOINT: CC50 (µM)
Respond numerically; units are µM and should not be typed.

According to the records, this compound COc1cc2c3cc1Oc1c(OC)c(OC)cc4c1[C@@H](Cc1cccc(c1)Oc1ccc(c(O)c1)C[C@@H]3N(C)CC2)N(C)CC4 [Berbamine Hydrochloride] displays CC50 of 9.03

---

System: CM2005.1
Test: cells
Parameters: CCK-8 anti-proliferation assay in conjunctival melanoma cell lines
Conditions: CM2005.1, read-out: IC50 (μM) CM2005.1
Counter-ions that a name gives are not always drawn.
ASSAY_ENDPOINT: IC50 (µM)
Your answer should be a plain number; it is taken to be in µM.

The compound listed as COc1cc2c3cc1Oc1c(OC)c(OC)cc4c1[C@@H](Cc1cccc(c1)Oc1ccc(c(O)c1)C[C@@H]3N(C)CC2)N(C)CC4 [Berbamine Hydrochloride] has a reported IC50 of 20.2
